- Read-out: TIMP metallopeptidase inhibitor 1 (TIMP1), TIMP1 (gene 7076)
- assay_name: BSK_hDFCGF_TIMP1: BioMAP Diversity Plus: hDFCGF Assay for TIMP metallopeptidase inhibitor 1 (TIMP1) Biomarker Activity (AID 2283062)
- test_context: primary human foreskin fibroblasts; actives raise or lower the signal
The source made the active and inactive calls. The calls were made as follows: active = hit-call score of the fitted dose curve at least 0.9, where 1 is the maximum; inactive = score below 0.9.
Possible outcomes: active, inactive

>>> class_name("CC(C)(C)c1cc([N+](=O)[O-])cc(C(C)(C)C)c1O")
"inactive"
>>> class_name("OC(Cc1ccccc1Cl)(Cn1[nH]cnc1=S)C1(Cl)CC1 (stereo not drawn)")
"inactive"
>>> class_name("O=[N+]([O-])c1cccc2ccccc12")
"inactive"
>>> class_name("CCCCCCCCCCCCc1cccc(S(=O)(=O)O)c1")
"active"
>>> class_name("Cc1cccc(OP(=O)(Oc2cccc(C)c2)Oc2cccc(C)c2)c1")
"inactive"
>>> class_name("c1ccc2sc(SNC3CCCCC3)nc2c1")
"inactive"
>>> class_name("CC(C=O)Cc1ccc2c(c1)OCO2 (stereo not drawn)")
"inactive"
>>> class_name("CCCCCCCCCCCCN(C)C")
"inactive"

###

- Read-out: Matrix Metallopeptidase 1 (MMP1), MMP1 (gene 4312)
- assay_name: BSK_BE3C_MMP1: BioMAP Diversity Plus: BE3C Assay for Matrix Metallopeptidase 1 (MMP1) Biomarker Activity (AID 2283024)
- test_context: primary human bronchial epithelial cells; actives raise or lower the signal
- Procedure: BSK_BE3C is a cell-based, multiplexed-readout assay that uses bronchial epithelial cell, a human lung primary cell, with measurements taken at 24 hours after chemical dosing in a 96-well plate.BSK_BE3C_MMP1 is an assay component measured in the BSK_BE3C assay. It measures MMP-1 antibody related to regulation of gene expression using ELISA technology.Data from the assay component BSK_BE3C_MMP1 was analyzed into 1 assay endpoint. […]
The source made the active and inactive calls. How the source made its calls: active means hit-call score of the fitted dose curve at least 0.9, where 1 is the maximum; inactive means score below 0.9.
Possible outcomes: TRUE for active, FALSE for inactive

>>> class_name("Nc1c(Oc2ccccc2)cc(O)c2c1C(=O)c1ccccc1C2=O")
"TRUE"
>>> class_name("CC(C=O)Cc1ccc2c(c1)OCO2 (stereo not drawn)")
"FALSE"
>>> class_name("Cc1cc(Cl)ccc1OC(C)C(=O)O (stereo not drawn)")
"FALSE"
>>> class_name("O=C(O)C1(c2ccc3c(c2)OC[C@H](Cc2ccc(-c4ccccc4)cc2)[C@H]3O)CCCC1")
"TRUE"
>>> class_name("OC(Cc1ccccc1Cl)(Cn1[nH]cnc1=S)C1(Cl)CC1 (stereo not drawn)")
"FALSE"
>>> class_name("CC(C)=CC1C(C(=O)OCc2cccc(Oc3ccccc3)c2)C1(C)C (stereo not drawn)")
"FALSE"
>>> class_name("Cc1ccccc1OP(=O)(Oc1ccccc1)Oc1ccccc1")
"TRUE"
>>> class_name("[Cl][Sn]([c]1ccccc1)([c]1ccccc1)[c]1ccccc1")
"TRUE"

###

- Read-out: Transforming growth factor beta 1 (TGFb1), TGFB1 (gene 7040)
- assay_name: BSK_BE3C_TGFb1: BioMAP Diversity Plus: BE3C Assay for Transforming growth factor beta 1 (TGFb1) Biomarker Activity (AID 2283036;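 also: TGF-b1 protein level measured by ELISA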)
- test_context: primary human bronchial epithelial cells; actives raise or lower the signal
Active and inactive are the calls of the source. Rule for the calls: active = hit-call score of the fitted dose curve at least 0.9, where 1 is the maximum; inactive = score below 0.9.
measured_parameter: outcome

>>> result("Cc1cc(C)cc(C)c1")
"inactive"
>>> result("Cc1c([N+](=O)[O-])c(C)c([N+](=O)[O-])c(C(C)(C)C)c1[N+](=O)[O-]")
"inactive"
>>> result("NC(=O)CCl")
"inactive"
>>> result("Oc1cc(Cl)c(Cl)cc1Cl")
"inactive"
>>> result("Cc1cccc(OP(=O)(Oc2cccc(C)c2)Oc2cccc(C)c2)c1")
"inactive"
>>> result("CCCCCCCCCCCCN(C)C")
"inactive"
